Assay: In Vitro Microsome Stability Assay (monkey)
Type: in vitro ADME
Settings: monkey, 30 min, NADPH
Catalogue of Liver Microsome Stability-% Left after 30 min w/ NADPH (%) Monkey values
Output spec: scalar in %, unitless text.

# example entries with known answers
[[record]]
query_smiles = "C[C@H]1CN(S(=O)(=O)c2ccc(N(C)C)cc2)CCCN(CC2CCCCC2)CCCN(S(=O)(=O)N2CCN(c3ncccn3)CC2)C1"
result_unit = "%"
measurement = 0.18

[[record]]
query_smiles = "C=C1CN(S(=O)(=O)c2ccc(N(C)C)cc2)CCCN(CC2CCCCC2)CCCN(S(=O)(=O)N2CC=C(c3ccccc3Cl)CC2)C1"
result_unit = "%"
measurement = 25.4

[[record]]
query_smiles = "C=C1CN(S(=O)(=O)c2ccc(C)cc2)CCCN(CC2CCOCC2)CCCN(S(=O)(=O)c2ccc(N(C)C)cc2)C1"
result_unit = "%"
measurement = 0.66


// Liver Microsome Stability-% Left after 30 min w/ NADPH (%) Monkey lookup, key: "O=C(c1ccc(Cl)cc1)N1CCCN(S(=O)(=O)N2CCCCC2)CC2(CC2)CN(S(=O)(=O)N2CCCCC2)CCC1"
0.03

###

Assay: In Vitro Microsome Stability Assay (monkey)
Format: in vitro ADME
Conditions: monkey, 30 min, NADPH
Structures can show the parent of a compound that is named as a salt.
observation_type: Liver Microsome Stability-% Left after 30 min w/ NADPH (%) Monkey
# output: bare number, implied unit %

[[record]]
compound = "C[C@H]1CN(S(=O)(=O)c2ccc(N(C)C)cc2)CCCN(CC2CCCCC2)CCCN(S(=O)(=O)N2CCC(Oc3ccccc3)CC2)C1 [A92]"
result_unit = "%"
measurement = 40.4

[[record]]
compound = "COC1CN(S(=O)(=O)c2ccc(N(C)C)cc2)CCCN(CC2CCCCC2)CCCN(S(=O)(=O)N2CCC(c3ccccc3)CC2)C1 (stereo not drawn) [A61]"
result_unit = "%"
measurement = 8.96

[[record]]
compound = "CC1CCN(S(=O)(=O)N2CCCN(CC3CCCCC3)CCCN(S(=O)(=O)c3ccc(N(C)C)cc3)CC3(CC3)C2)CC1 [A22]"
result_unit = "%"
measurement = 0.11

[[record]]
compound = "CN(C)c1ccc(S(=O)(=O)N2CCCN(CC3CCCCC3)CCCN(S(=O)(=O)N3CCCCC3)CC3(CC3)C2)cc1 [A19, hydrochloride]"
result_unit = "%"
measurement = 0.08

[[record]]
compound = "C=C1CN(S(=O)(=O)c2ccc(N(C)C)cc2)CCCN(CC2CCCCC2)CCCN(S(=O)(=O)N2CC=C(c3ccc(Cl)cc3)CC2)C1 [A74]"
result_unit = "%"
measurement = 60.6

[[record]]
compound = "Cc1ccccc1N1CCN(S(=O)(=O)N2CCCN(CC3CCCCC3)CCCN(S(=O)(=O)c3ccc(N(C)C)cc3)C[C@H](C)C2)CC1 [A97]"
result_unit = "%"
measurement = 66.1


Reported Liver Microsome Stability-% Left after 30 min w/ NADPH (%) Monkey, compound C=C1CN(S(=O)(=O)c2ccc(N(C)C)cc2)CCCN(CC2CCCCC2)CCCN(S(=O)(=O)N2CCC(c3cccc(Cl)c3)CC2)C1 [A58] : ____
53.1

###

Test system: IL-6
Assay: Human PBMC Cytokine Assay: IL-6
Assay type: cell-based
Settings: LPS stimulation, 24 hours
Parameter IC50: see the listing below.

[[record]]
query_smiles = "COc1cc(F)ccc1N1CCN(S(=O)(=O)N2CCCN(CC3CCCCC3)CCCN(S(=O)(=O)c3ccc(N(C)C)cc3)C[C@H](C)C2)CC1"
measurement = "12 nM"

[[record]]
query_smiles = "COc1cc(F)ccc1N1CCN(S(=O)(=O)N2CCCN(CC3CCCCC3)CCCN(S(=O)(=O)c3ccc(N(C)C)cc3)C[C@H](C)C2)C[C@H]1C"
measurement = "24 nM"


Quick one: IC50 of "Cc1ccccc1CN1CCCN(S(=O)(=O)c2ccc(N(C)C)cc2)C[C@H](C)CN(S(=O)(=O)N2CCc3cc(Cl)ccc3C2)CCC1" ?
193 nM

Data request, read-out IC50, for "C[C@H]1CN(S(=O)(=O)c2ccc(N(C)C)cc2)CCCN(CC2CCCCC2)CCCN(S(=O)(=O)N2CCc3cc(Cl)ccc3C2)C1"
61 nM

###

Readings of Liver Microsome Stability-% Left after 30 min w/ NADPH (%) Human for the listed molecules
Assay: In Vitro Microsome Stability Assay (human)
Format: in vitro ADME
Conditions: human liver microsomes, 30 min w/ NADPH
Include the unit right after the number.

Worked examples follow.
[[record]]
molecule = "C[C@H]1CN(S(=O)(=O)c2ccc(N(C)C)cc2)CCCN(CC2CCCCC2)CCCN(S(=O)(=O)N2CCc3c(Cl)cccc3C2)C1 [A181]"
measurement = "23.3%"

[[record]]
molecule = "CC(=O)N(C)c1ccc(CNS(=O)(=O)N2CCCN(CC3CCCCC3)CCCN(S(=O)(=O)c3ccc(N(C)C)cc3)C[C@H](C)C2)cc1 [A192]"
measurement = "0.02%"


So what's the measured Liver Microsome Stability-% Left after 30 min w/ NADPH (%) Human for this one? COc1ccccc1N1CCN(S(=O)(=O)N2CCCN(CC3CCCCC3)CCCN(S(=O)(=O)c3ccc(N(C)C)cc3)C[C@H](C)C2)CC1 [A154]
7.33%

Liver Microsome Stability-% Left after 30 min w/ NADPH (%) Human for C[C@H]1CN(S(=O)(=O)c2ccc(N(C)C)cc2)CCCN(CC2CCCCC2)CCCN(S(=O)(=O)N2CCN(C(=O)OC(C)(C)C)CC2)C1 [A153] ?
2.57%

Need Liver Microsome Stability-% Left after 30 min w/ NADPH (%) Human of C[C@H]1CN(S(=O)(=O)c2ccc(N(C)C)cc2)CCCN(CC2CCC(F)(F)CC2)CCCN(S(=O)(=O)N2CCc3cc(Cl)ccc3C2)C1 [A185] , thanks.
21.8%

Consider the molecule C[C@H]1CN(S(=O)(=O)c2ccc3oncc3c2)CCCN(CC2CCCCC2)CCCN(S(=O)(=O)N2CCc3cc(Cl)ccc3C2)C1 [A180] and give its measured Liver Microsome Stability-% Left after 30 min w/ NADPH (%) Human.
0.80%

###

Liver Microsome Stability-% Left after 30 min w/ NADPH (%) Rat overview
Experiment: In Vitro Microsome Stability Assay (rat)
Assay type: in vitro ADME
Conditions: rat liver microsomes, 30 min w/ NADPH
Express it in %; write the number only.

As a guide, the following entries are already answered.
[[record]]
query_smiles = "COc1cc(F)ccc1N1CCN(S(=O)(=O)N2CCCN(CC3CCCCC3)CCCN(S(=O)(=O)c3ccc(N(C)C)cc3)C[C@H](C)C2)C[C@H]1C"
measurement = 14.5

[[record]]
query_smiles = "C[C@@H]1CN(CC2CCCCC2)C[C@H](C)CN(S(=O)(=O)c2ccc(N(C)C)cc2)C[C@H](C)CN(S(=O)(=O)N2CCc3cc(Cl)ccc3C2)C1"
measurement = 72.3

[[record]]
query_smiles = "COc1cccc2c1CCN(S(=O)(=O)N1CCCN(CC3CCCCC3)CCCN(S(=O)(=O)c3ccc(N(C)C)cc3)C[C@H](C)C1)C2"
measurement = 17.1


Okay, now this compound:
Consider the compound "C[C@H]1CN(S(=O)(=O)c2ccc(N(C)C)cc2)CCCCN(S(=O)(=O)N2CCc3cc(Cl)ccc3C2)C1" and give its measured Liver Microsome Stability-% Left after 30 min w/ NADPH (%) Rat.
0.06

###

Experiment: In Vitro Microsome Stability Assay (monkey)
Type: in vitro ADME
Settings: monkey liver microsomes, 30 min w/ NADPH
Tag: true if measured Liver Microsome Stability-% Left after 30 min w/ NADPH (%) Monkey is not below 2%, false if it is.

Some entries whose results are on file:
[[record]]
molecule = "CN(C)c1ccc(S(=O)(=O)N2CCCN(CC3CCCCC3)CCCN(S(=O)(=O)N3CCCCC3)C2)cc1"
assigned_class = "false"

[[record]]
molecule = "Cc1cc(F)ccc1N1CCN(S(=O)(=O)N2CCCN(CC3CCCCC3)CCCN(S(=O)(=O)c3ccc(N(C)C)cc3)C[C@H](C)C2)C(C)C1 (stereo in doubt)"
assigned_class = "true"

[[record]]
molecule = "C[C@H]1CN(S(=O)(=O)c2ccc3oncc3c2)CCCN(CC2CCCCC2)CCCN(S(=O)(=O)N2CCc3cc(Cl)ccc3C2)C1"
assigned_class = "false"

[[record]]
molecule = "C[C@@H]1CN(S(=O)(=O)NCc2ccccc2)CCCN(CC2CCCCC2)CCCN(S(=O)(=O)c2ccc(N(C)C)cc2)C1"
assigned_class = "false"

[[record]]
molecule = "Cc1cc(F)ccc1N1CCN(S(=O)(=O)N2CCCN(CC3CCCCC3)CCCN(S(=O)(=O)c3ccc(N(C)C)cc3)C[C@H](C)C2)CC1"
assigned_class = "true"


Kindly consider the entry below.
Liver Microsome Stability-% Left after 30 min w/ NADPH (%) Monkey >= 2% for "COc1ccc(N2CCN(S(=O)(=O)N3CCCN(CC4CCCCC4)CCCN(S(=O)(=O)c4ccc(N(C)C)cc4)C[C@H](C)C3)CC2)cc1" ?
true
